- run description: Pharmacokinetic study in rats
- Format: in vivo
- measurement setup: rat, plasma; Sprague-Dawley rats, intravenous, 2 mg/kg, solution
metric: clearance
Phrase the answer as number then unit, nothing more needed.

[ask] Form field: reported clearance of [2H]C([2H])([2H])NC(=O)c1cnc(NC(=O)C2CC2)cc1Nc1nn(C)c2ccc([C@H](O)C(F)(F)F)c(OC)c12 [Example 49A]
[reply] 38.2 mL/min/kg

* * *

- run description: Pharmacokinetic study in rats
- Assay type: in vivo
- measurement setup: rat, plasma; Sprague-Dawley rats, intravenous, 3 mg/kg, solution
metric: half-life (h)
Quick reminder: number only, in h, skip the unit.

[ask] Form field: reported half-life of [2H]C([2H])([2H])NC(=O)c1cnc(NC(=O)C2CC2)cc1Nc1nn(C)c2ccc([C@H](OC([2H])([2H])[2H])C(F)(F)F)c(OC)c12 [Example 55A]
[reply] 2.56

* * *

- Tested on: TYK2 pathway
- run description: IFN-γ release in NK92 cells stimulated by IL-12 (ELISA)
- Type: cell-based
- measurement setup: IL-12 2.5ng/mL stimulation 15hrs, IFN-γ in supernatant by ELISA
Record form. Attribute: log10 IC50. Fill in for each entry.
Hi team, quick reminder: these entries are log10 of IC50 (nM).

[ask] Form field: reported log10 IC50 of CCC(=O)c1cnc(NC(=O)C2CC2)cc1Nc1ccn2nccc2c1OC [Example 195, reference compound]
[reply] 3.18

[ask] Form field: reported log10 IC50 of [2H]C([2H])([2H])NC(=O)c1cnc(Nc2ccn(C)n2)cc1Nc1cnn2ccc([C@H](O)C(F)(F)F)c(OC)c12 [Example 21]
[reply] 1.16

[ask] Form field: reported log10 IC50 of [2H]C([2H])([2H])NC(=O)c1nnc(NC(=O)C2CC2)cc1Nc1cnn2ccc([C@H](O)C(F)(F)F)c(OC)c12 [Example 30]
[reply] 0.83

[ask] Form field: reported log10 IC50 of CCC(=O)c1cnc(NC(=O)C2CC2)cc1Nc1ccc2[nH]cnc2c1OC [Example 197, reference compound]
[reply] 2.71

[ask] Form field: reported log10 IC50 of CCC(=O)c1cnc(NC(=O)C2CC2)cc1Nc1ccc2cn[nH]c2c1OC [Example 196, reference compound]
[reply] 2.97

[ask] Form field: reported log10 IC50 of [2H]C([2H])([2H])NC(=O)c1cnc(NC(=O)[C@@H]2C[C@@H]2F)cc1Nc1cnn2ccc(C(O)C(F)(F)F)c(OC)c12 (single isomer, unassigned) [Example 15A]
[reply] 1.20

[ask] Form field: reported log10 IC50 of COC(=O)c1cnc(NC(=O)C2CC2)cc1Nc1cnn2ccc([C@H](O)C(F)(F)F)c(OC)c12 [Example 26]
[reply] 1.25

[ask] Form field: reported log10 IC50 of CNC(=O)c1cnc(NC(=O)C2CC2)cc1Nc1nn(C)c2cccc(OC)c12 [Example 100]
[reply] 1.94

[ask] Form field: reported log10 IC50 of [2H]C([2H])([2H])NC(=O)c1cnc(NC(=O)C2CC2)cc1Nc1cnn2ccc([C@H](OC(C)=O)C(F)(F)F)c(OC)c12 [Example 43]
[reply] 1.35

[ask] Form field: reported log10 IC50 of [2H]C([2H])([2H])NC(=O)c1cnc(Nc2cc(C)nc(C)n2)cc1Nc1cnn2ccc([C@H](O)C(F)(F)F)c(OC)c12 [Example 25]
[reply] 0.86

[ask] Form field: reported log10 IC50 of [2H]C([2H])([2H])NC(=O)c1cnc(NC(=O)C2CC2)cc1Nc1cnn2ccc([C@H](O)C(F)(F)F)c(OC)c12 [Example 7A]
[reply] 0.96

[ask] Form field: reported log10 IC50 of [2H]C([2H])([2H])NC(=O)c1cnc(NC(=O)C2CC2)cc1Nc1cnn2ccc([C@H](OC)C(F)(F)F)c(OC)c12 [Example 27]
[reply] 0.78

* * *

- run description: Caco-2 cell permeability
- Format: in vitro ADME
- measurement setup: human; Caco-2, 10.0 µM, no p-gp inhibitor; read-out: Efflux Ratio: Papp(B-A)/Papp(A-B)
efflux ratio at 90 min, 10 µM vs 20: at or above is Condition met, below is Condition not met.

[ask] Check the entry [2H]C([2H])([2H])NC(=O)c1cnc(NC(=O)C2CC2)nc1Nc1cnn2ccc([C@H](O)C(F)(F)F)c(OC)c12 : does efflux ratio at 90 min, 10 µM equal or exceed 20?
[reply] Condition met

[ask] Check the entry [2H]C([2H])([2H])NC(=O)c1cnc(Nc2cc(C)nc(C)n2)cc1Nc1cnn2ccc([C@H](O)C(F)(F)F)c(OC)c12 : does efflux ratio at 90 min, 10 µM equal or exceed 20?
[reply] Condition met

[ask] Check the entry [2H]C([2H])([2H])NC(=O)c1cnc(NC(=O)C2CC2)cc1Nc1nn(C)c2ccc([C@H](O)C(F)(F)F)c(OC)c12 [Example 49A] : does efflux ratio at 90 min, 10 µM equal or exceed 20?
[reply] Condition met

[ask] Check the entry COC(=O)c1cnc(NC(=O)C2CC2)cc1Nc1nn(C)c2ccc([C@H](O)C(F)(F)F)c(OC)c12 [Example 48A] : does efflux ratio at 90 min, 10 µM equal or exceed 20?
[reply] Condition not met

[ask] Check the entry COC(=O)c1cnc(NC(=O)C2CC2)cc1Nc1nn(C)c2ccc([C@H](OC)C(F)(F)F)c(OC)c12 [Example 45B] : does efflux ratio at 90 min, 10 µM equal or exceed 20?
[reply] Condition not met

[ask] Check the entry [2H]C([2H])([2H])NC(=O)c1cnc(Nc2ccn(C)n2)cc1Nc1cnn2ccc([C@H](O)C(F)(F)F)c(OC)c12 : does efflux ratio at 90 min, 10 µM equal or exceed 20?
[reply] Condition met

[ask] Check the entry [2H]C([2H])([2H])NC(=O)c1cnc(NC(=O)C2CC2)cc1Nc1cnn2ccc(C(C)O)c(OC)c12 (stereo not shown) : does efflux ratio at 90 min, 10 µM equal or exceed 20?
[reply] Condition met

* * *

- run description: Caco-2 cell permeability
- Type: in vitro ADME
- measurement setup: human; Caco-2, 10.0 µM, no p-gp inhibitor, 90 mins, A to B
metric: Papp A→B at 90 min, 10 µM (nm/s)
Quick reminder: number only, in nm/s, skip the unit.

[ask] Form field: reported Papp A→B at 90 min, 10 µM of [2H]C([2H])([2H])NC(=O)c1cnc(NC(=O)C2CC2)nc1Nc1cnn2ccc([C@H](O)C(F)(F)F)c(OC)c12
[reply] 3.9

[ask] Form field: reported Papp A→B at 90 min, 10 µM of [2H]C([2H])([2H])NC(=O)c1cnc(Nc2cc(C)nc(C)n2)cc1Nc1cnn2ccc([C@H](O)C(F)(F)F)c(OC)c12
[reply] 25.7

[ask] Form field: reported Papp A→B at 90 min, 10 µM of [2H]C([2H])([2H])NC(=O)c1cnc(Nc2ccn(C)n2)cc1Nc1cnn2ccc([C@H](O)C(F)(F)F)c(OC)c12
[reply] 7.1

[ask] Form field: reported Papp A→B at 90 min, 10 µM of COC(=O)c1cnc(NC(=O)C2CC2)cc1Nc1nn(C)c2ccc([C@H](OC)C(F)(F)F)c(OC)c12 [Example 45B]
[reply] 72.7

[ask] Form field: reported Papp A→B at 90 min, 10 µM of COC(=O)c1cnc(NC(=O)C2CC2)cc1Nc1nn(C)c2ccc([C@H](O)C(F)(F)F)c(OC)c12 [Example 48A]
[reply] 299

[ask] Form field: reported Papp A→B at 90 min, 10 µM of [2H]C([2H])([2H])NC(=O)c1cnc(NC(=O)C2CC2)cc1Nc1nn(C)c2ccc([C@H](O)C(F)(F)F)c(OC)c12 [Example 49A]
[reply] 13.2

[ask] Form field: reported Papp A→B at 90 min, 10 µM of [2H]C([2H])([2H])NC(=O)c1cnc(NC(=O)C2CC2)cc1Nc1cnn2ccc(C(C)O)c(OC)c12 (stereo not shown)
[reply] 4.6

* * *

Record form. Attribute: pIC50. Fill in for each entry.
- test system: TYK2-JH2 domain (Homo sapiens)
- Construct: JAK1-JH2 domain or TYK2-JH2 domain enzyme in assay buffer
- Sequence (P29597 589-875 limits assumed): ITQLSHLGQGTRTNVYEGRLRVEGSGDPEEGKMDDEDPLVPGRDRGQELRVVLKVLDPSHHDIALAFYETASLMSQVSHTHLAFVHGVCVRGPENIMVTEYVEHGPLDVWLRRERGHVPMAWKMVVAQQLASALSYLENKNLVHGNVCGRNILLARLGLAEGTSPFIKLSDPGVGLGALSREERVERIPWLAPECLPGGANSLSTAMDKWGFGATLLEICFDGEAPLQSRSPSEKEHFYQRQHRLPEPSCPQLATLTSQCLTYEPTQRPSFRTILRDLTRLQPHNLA
- run description: Binding activity test for JH2 domain of TYK2 (Tb-antibody/tracer FRET)
- measurement setup: JH2 domain enzyme; 60 min at 25°C, then 4°C overnight; read-out: TYK2 JH2 Binding IC50
pIC50 is a log-scale quantity: -log10 of the concentration expressed in molar.

[ask] Form field: reported pIC50 of [2H]C([2H])([2H])NC(=O)c1cnc(NC(=O)C2CC2)cc1Nc1nn(C)c2ccc(C(OC)C(F)(F)F)c(OC)c12 (stereo not drawn) [Example 46]
[reply] 9.95

[ask] Form field: reported pIC50 of [2H]C([2H])([2H])NC(=O)c1cnc(NC(=O)C2CC23CC3)cc1Nc1cnn2ccc([C@H](O)C(F)(F)F)c(OC)c12 (single isomer, unassigned) [Example 32B]
[reply] 9.97

[ask] Form field: reported pIC50 of CCC(OC)c1ccc2c(c(Nc3cc(NC(=O)C4CC4)ncc3C(=O)OC)nn2C)c1OC (stereo not drawn) [Example 121]
[reply] 9.39

[ask] Form field: reported pIC50 of [2H]C([2H])([2H])NC(=O)c1nnc(NC(=O)C2CC2)cc1Nc1nn(C)c2ccc([C@H](OC([2H])([2H])[2H])C(F)(F)F)c(OC)c12 [Example 135]
[reply] 10.15

[ask] Form field: reported pIC50 of [2H]C([2H])([2H])NC(=O)c1cnc(NC(=O)[C@@H]2C[C@@H]2F)cc1Nc1cnn2ccc(C#N)c(OC)c12 [Example 13]
[reply] 9.76

[ask] Form field: reported pIC50 of COC(=O)c1cnc(NC(=O)C2CC2)cc1Nc1nn(C)c2ccc(C(C)OC)c(OC)c12 (stereo not drawn) [Example 112]
[reply] 9.79
